Catalogue of inhibition readings, one per entry.
# Species: Rattus norvegicus
# Measurement Description: Inhibition of rat recombinant Rab geranylgeranyltransferase at 100 uM in presence of canine Rab7 and rat REP1 NBD-FPP based continuous fluorimetric assay
Peptide text beside a SMILES is read from it. * marks the point of attachment. Hydrocinnamoyl = O=C(CCc1ccccc1)*; NHBn = c1ccc(CN*)cc1
Express your answer in %, writing the number without its unit.

Molecule: C[C@@H](O)[C@H](NC(=O)/C=C/c1ccccc1)C(=O)N[C@@H](Cc1ccccc1)C(=O)N[C@@H](CCC(N)=O)C(=O)NC1CCCCC1
Unit Label: %
Number: 75

What does the record list as inhibition for COC(=O)[C@H](Cc1ccc(O)cc1)NC(=O)CNC(=O)[C@H](Cc1ccc(O)cc1)NC(=O)c1ccc(F)cc1 ?
93

So what's the measured inhibition for this one? CCCCCCCCCCCOc1ccc(C(=O)N[C@@H](Cc2ccc(O)cc2)C(=O)N[C@@H](Cc2ccc(O)cc2)C(=O)N[C@@H](Cc2ccc(O)cc2)C(=O)NCC(O)CO)cc1 (some centres not stated)
90

Report inhibition for NC(=O)CC[C@H](NC(=O)[C@H](Cc1ccccc1)NC(=O)CNC(=O)CCc1ccccc1)C(=O)NCc1ccccc1 (Hydrocinnamoyl-Gly-Phe-Gln-NHBn) please.
85

GET /values?readout=inhibition&item= CCCCCCCCCCCOc1ccc(C(=O)N[C@@H](Cc2ccc(O)cc2)C(=O)N[C@@H](Cc2ccc(O)cc2)C(=O)N[C@@H](Cc2ccc(O)cc2)C(=O)OCCCl)cc1
107

---

# Organism: Rattus norvegicus
# Measurement Description: Inhibition of rat recombinant Rab geranylgeranyltransferase at 100 uM in presence of canine Rab7 and rat REP1 NBD-FPP based continuous fluorimetric assay
Peptide text beside a SMILES is read from it. * marks the point of attachment. Hydrocinnamoyl = O=C(CCc1ccccc1)*; Undecanoyl = CCCCCCCCCCC(=O)*; NHNH2 = NN*; NHOH = ON*
Assay Metric: inhibition
Just so you know, I need the unit written after the number.

Compound: CCCCCCCCCCCOc1ccc(C(=O)N[C@@H](Cc2ccc(O)cc2)C(=O)N[C@@H](Cc2ccc(O)cc2)C(=O)N[C@@H](Cc2ccc(O)cc2)C(=O)NC2CCCCC2)cc1
inhibition: 91%
--
Compound: O=C(CCNC(=O)[C@H](Cc1c[nH]cn1)NC(=O)OCc1ccccc1)N[C@@H](Cc1ccc(O)cc1)C(=O)Nc1nccs1
inhibition: 73%

Any idea what inhibition was measured for NNC(=O)[C@H](CO)NC(=O)CNC(=O)[C@H](CO)NC(=O)CCc1ccccc1 (Hydrocinnamoyl-Ser-Gly-Ser-NHNH2) ?
94%

Consider the compound C[C@@H](NC(=O)CCc1ccccc1)C(=O)N[C@@H](Cc1ccccc1)C(=O)N[C@@H](CCC(N)=O)C(=O)O and give its measured inhibition.
111%

Would you mind telling me what inhibition value was observed for C[C@@H](O)[C@H](NC(=O)C(Br)C(Br)c1ccccc1)C(=O)N[C@@H](Cc1ccccc1)C(=O)N[C@@H](CCC(N)=O)C(=O)Nc1cccc(Br)n1 (stereo partly specified) ?
113%

What does the data say about its inhibition? Entry: CCCCCCCCCCC(=O)N[C@@H](Cc1ccc(O)cc1)C(=O)N[C@@H](Cc1c[nH]cn1)C(=O)N[C@@H](Cc1c[nH]cn1)C(=O)NO (Undecanoyl-Tyr-His-His-{NHOH})
84%

So what's the measured inhibition for this one? CC(C)CCNC(=O)[C@H](CO)NC(=O)CNC(=O)[C@H](CO)NC(=O)/C=C/c1ccc(F)cc1
85%

---

inhibition reference
# Organism: Rattus norvegicus
# Measurement Description: Inhibition of rat recombinant Rab geranylgeranyltransferase at 100 uM in presence of canine Rab7 and rat REP1 NBD-FPP based continuous fluorimetric assay
# output: bare number, implied unit %

Field: example entries. Status: answers known.
Compound: C[C@@H](O)[C@H](NC(=O)/C=C/c1ccccc1)C(=O)N[C@@H](Cc1ccccc1)C(=O)N[C@@H](CCC(N)=O)C(=O)Nc1cccc(Br)n1
Number: 83

Compound: C[C@H](NC(=O)[C@@H](NC(=O)c1ccc(-c2ccccc2)cc1)[C@@H](C)O)C(=O)N[C@@H](CCC(=O)O)C(=O)O
Number: 96

Compound: CCC/C=C\c1ccccc1/C=C/C(=O)N[C@H](Cc1ccc(O)cc1)C(=O)N(C)[C@@H](Cc1ccc(OC)cc1)C(=O)N(C)[C@@H](Cc1ccccc1)C(=O)OCc1cnc(C)s1
Number: 97

What does the data say about its inhibition? Entry: CC(C)C[C@H](NC(=O)[C@@H]1CCCN1C(=O)/C=C/c1ccccc1)C(=O)N[C@@H](Cc1ccccc1)C(=O)O
80

What measured inhibition goes with O=C(CCc1ccc(F)cc1)N[C@@H](Cc1ccc(O)cc1)C(=O)NCC(=O)N[C@@H](Cc1ccc(O)cc1)C(=O)NCc1ccccc1 ?
127

Name the recorded inhibition for C[C@H](NC(=O)C(Br)C(Br)c1ccc(F)cc1)C(=O)NCC(=O)N[C@@H](Cc1ccc(O)cc1)C(=O)Nc1ccc(F)cc1F (stereo partly specified) .
69

---

# Species: Rattus norvegicus
# Measurement Description: Inhibition of rat recombinant Rab geranylgeranyltransferase at 100 uM in presence of canine Rab7 and rat REP1 NBD-FPP based continuous fluorimetric assay
Peptide text beside a SMILES is read from it. * marks the point of attachment. Nicotinoyl = O=C(c1cccnc1)*
Readings of inhibition for the listed compounds
Record the value in %, omitting the unit from your answer.

Below: 4 compounds and their reported inhibition.
Compound: O=C(CNC(=O)[C@H](Cc1c[nH]cn1)NC(=O)c1coc(-c2ccccc2)n1)N[C@@H](Cc1ccc(O)cc1)C(=O)O
Unit Label: %
inhibition: 99
--
Compound: CC[C@H](C)[C@H](NC(=O)[C@H](Cc1ccccc1)NC(=O)c1cccnc1)C(=O)N[C@@H](CCCNC(=N)N)C(=O)O (Nicotinoyl-Phe-Ile-Arg-OH)
Unit Label: %
inhibition: 119
--
Compound: CC(=O)Nc1cc(C(=O)N2CCC[C@H]2C(=O)N[C@@H](C(=O)N[C@@H](CCC(=O)O)C(=O)Nc2ccc(F)c(Cl)c2)C(C)C)ccc1[N+](=O)[O-]
Unit Label: %
inhibition: 109
--
Compound: CCCCCCCCCCCCCCCC(=O)N[C@@H](Cc1ccc(O)cc1)C(=O)N[C@@H](Cc1ccc(O)cc1)C(=O)N[C@@H](Cc1ccc(O)cc1)C(=O)Nc1nccs1
Unit Label: %
inhibition: 83

Next compound, please.
Please give the measured inhibition for this compound: CC[C@H](C)[C@H](NC(=O)c1ccc(-c2ccccc2)cc1)C(=O)N[C@@H](C(=O)N[C@@H](CCC(N)=O)C(=O)N1CCOCC1)C(C)C
92

---

# Species: Rattus norvegicus
# Measurement Description: Inhibition of rat recombinant Rab geranylgeranyltransferase at 100 uM in presence of canine Rab7 and rat REP1 NBD-FPP based continuous fluorimetric assay
Peptide text beside a SMILES is read from it. * marks the point of attachment. Hydrocinnamoyl = O=C(CCc1ccccc1)*
Assay Metric: inhibition (%)
Numbers only here, please. The scale is %.

Compound: CCCCCCCCCCC(=O)N[C@@H](Cc1c[nH]cn1)C(=O)N[C@@H](Cc1ccccc1)C(=O)N[C@@H](Cc1ccc(O)cc1)C(=O)Nc1ccccc1N
Assay Metric: inhibition
Number: 34
//
Compound: NC(=O)CC[C@H](NC(=O)[C@H](Cc1ccccc1)NC(=O)CNC(=O)CCc1ccccc1)C(N)=O (Hydrocinnamoyl-Gly-Phe-Gln-NH2)
Assay Metric: inhibition
Number: 103
//
Compound: O=C(CNC(=O)[C@@H]1CCCN1C(=O)c1coc(-c2ccccc2)n1)N[C@@H](Cc1ccccc1)C(=O)Nc1ccc(F)cc1F
Assay Metric: inhibition
Number: 89
//
Compound: CC[C@H](C)[C@H](NC(=O)c1ccc(-c2ccccc2)cc1)C(=O)N[C@@H](C(=O)N[C@@H](CCC(N)=O)C(=O)OC)C(C)C
Assay Metric: inhibition
Number: 94

Can you look up the measured inhibition of C[C@H](NC(=O)[C@@H](NC(=O)c1ccc(-c2ccccc2)cc1)[C@@H](C)O)C(=O)N[C@@H](CCC(=O)O)C(N)=O for me?
82

Looking for the measured inhibition of O=C(CNC(=O)[C@@H]1CCCN1C(=O)/C=C/c1ccccc1)N[C@@H](Cc1ccccc1)C(=O)O , can you help?
71

---

inhibition values, listed per item
# Organism: Rattus norvegicus
# Measurement Description: Inhibition of rat recombinant Rab geranylgeranyltransferase at 100 uM in presence of canine Rab7 and rat REP1 NBD-FPP based continuous fluorimetric assay
Give the number; % is assumed, so skip it.

Here are 2 molecules together with their reported answers.
Smiles Input: CC(=O)Nc1cc(C(=O)N2CCC[C@H]2C(=O)N[C@@H](C(=O)N[C@@H](CCC(=O)O)C(=O)O)C(C)C)ccc1[N+](=O)[O-]
Unit Label: %
inhibition: 95
--
Smiles Input: C[C@@H](O)[C@H](NC(=O)/C=C/c1ccccc1)C(=O)N[C@@H](Cc1ccccc1)C(=O)N[C@@H](CCC(N)=O)C(=O)O
Unit Label: %
inhibition: 83

Record request: inhibition value, item CCCCCCCCCCCOc1ccc(C(=O)N[C@@H](Cc2c[nH]cn2)C(=O)N[C@@H](Cc2ccc(O)cc2)C(=O)N[C@@H](Cc2ccccc2)C(=O)N(C)CCc2ccccn2)cc1
101

Would you kindly share the measured inhibition for Cc1nc(C)c(C(=O)OC[C@H](NC(=O)[C@H](Cc2ccccc2)NC(=O)[C@H](CO)NC(=O)c2coc(-c3ccccc3)n2)C(=O)O)o1 ?
84

Name the recorded inhibition for O=C(N[C@@H](CO)C1=N[C@H](C(=O)O)CO1)c1coc(-c2ccccc2)n1 .
93

Suppose we examine the molecule CC(C)C[C@H](NC(=O)c1coc(-c2ccccc2)n1)C(=O)NCC(=O)N[C@@H](Cc1c[nH]cn1)C(=O)Nc1ccc(F)cc1F ; what inhibition value has been reported?
88

Could you tell me which inhibition is on file for NC(=O)CC[C@H](NC(=O)[C@H](Cc1ccccc1)NC(=O)[C@H](CO)NC(=O)CCc1ccccc1)C(=O)Nc1ccc(F)cc1F ?
104
